Please respond with reported GI50 for every item in the list.
System name: Ba/F3_KRAS^G12D cells (Homo sapiens, UniProt P01116, G12D, cells depend on it)
Sequence (P01116 whole entry G12D): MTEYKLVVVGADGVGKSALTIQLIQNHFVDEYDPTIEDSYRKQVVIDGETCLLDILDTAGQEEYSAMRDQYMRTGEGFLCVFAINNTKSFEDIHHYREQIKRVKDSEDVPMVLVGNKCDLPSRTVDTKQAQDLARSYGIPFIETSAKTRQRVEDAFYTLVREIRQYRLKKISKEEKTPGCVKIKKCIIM
Procedure summary: Ba/F3 KRAS^G12D cell proliferation assay (cell-titer Glo)
Assay type: cell-based
Measurement conditions: cell growth inhibition, treated with the compounds for 3 days, read-out: BaF3_KRAS^G12D IC50

These recorded examples may help you get a feel for the data.
Structure notation | GI50
Nc1cccc(F)c1-c1ncc2c(N3CC4CCC(C3)N4)nc(OCC34CCCN3CCC4)cc2n1 | > 5 µM
C#Cc1c(F)ccc2cc(O)cc(-c3nc(OC)c4c(N5CC6CCC(C5)N6)nc(OC[C@@]56CCCN5[C@H](COC(=O)N(C)C)CC6)nc4c3F)c12 | < 0.5 µM
CN1CCC[C@H]1Cn1c(=O)nc(N2CC3CCC(C2)N3)c2cnc(-c3cc(O)cc4ccccc34)c(F)c21 | > 5 µM
C#Cc1c(F)ccc2cc(O)cc(-c3nc(OC)c4c(N5CC6CCC(C5)N6)nc(OC[C@]56CCCN5[C@H](COC(=O)N(C)C)CC6)nc4c3F)c12 | < 0.5 µM
CCc1cccc2cc(O)cc(-c3nc(Cl)c4c(N5CC6CCC(C5)N6)nc(OC[C@@]56CCCN5C[C@H](F)C6)nc4c3F)c12 | < 0.5 µM
N#Cc1cc2c(N3CC4CCC(C3)N4)nc(OC[C@@]34CCCN3C[C@H](F)C4)nc2nc1-c1cc(O)cc2ccccc12 | > 5 µM
N#Cc1c(-c2cccc3cccc(Cl)c23)nc(OCC23CCCN2CCC3)c2ccc(N3CCNCC3)nc12 | 0.5 to 5 µM
C#Cc1c(F)ccc2cccc(-c3nc(OC(C)C)c4c(N5CC6CCC(C5)N6)nc(OC[C@]56CCCN5[C@@H](COC(=O)N5CCOCC5)CC6)nc4c3F)c12 | < 0.5 µM
C#Cc1c(F)ccc2cc(O)cc(-c3nc(OC(C)C)c4c(N5CC6CCC(C5)N6)nc(OC[C@@H]5C[C@H](F)CN5C)nc4c3F)c12 | < 0.5 µM
Fc1cc2c(N3CC4CCC(C3)N4)nc(OCC34CCCN3CCC4)nc2nc1-c1cccc2cccc(Cl)c12 | > 5 µM

Dear colleague, could you please provide GI50 for the compounds listed below?
1. Fc1ccc2cccc(-c3ncc4c(N5CC6CCC(C5)N6)nc(OC[C@@]56CCCN5C[C@H](F)C6)nc4c3F)c2c1Cl
2. CN(C)CCCn1c(=O)nc(N2CC3CCC(C2)N3)c2cnc(-c3cccc4cccc(Cl)c34)c(F)c21
3. CN1CCC[C@H]1Cn1c(=O)nc(N2C[C@H]3CC[C@@H](C2)N3)c2cc(F)c(-c3cccc4cccc(Cl)c34)nc21
4. CN1CCC[C@H]1Cn1c(=O)nc(N2CCNCC2)c2cnc(-c3cccc4cccc(Cl)c34)c(F)c21
5. O=C(C(O)O)N1CCN(c2nc(OC[C@@]34CCCN3C[C@H](F)C4)nc3c(F)c(-c4cc(O)cc5cccc(Cl)c45)ncc23)CC1

**Result**
1: < 0.5 µM; 2: > 5 µM; 3: > 5 µM; 4: > 5 µM; 5: > 5 µM

This collection of values is drawn from patent US20230357233A1.
